pKi: −log10 of the molar value.
Reported pKi, Carbonic anhydrase 6 (Homo sapiens, UniProt P23280).

{"columns": ["Compound", "pKi"],
 "data": [
  ["N#CO [CYANATE]", 3.16],
  ["O=[N+]([O-])O", 3.12],
  ["OB(O)c1ccccc1", 9.09]
]}

* * *

Reported log10 Ki, Carbonic anhydrase (Stylophora pistillata).
Recorded metric: log10 Ki (log10 of the value in µM)

{"columns": ["Compound", "log10 Ki"],
 "data": [
  ["CCN[C@H]1CN(CCCOC)S(=O)(=O)c2sc(S(N)(=O)=O)cc21 [BRINZOLAMIDE]", -0.77],
  ["O=[N+]([O-])O [NITRIC ACID]", 3.00],
  ["NS(=O)(=O)c1ccc(S(=O)(=O)Nc2cccc3c(Cl)c[nH]c23)cc1", -0.40],
  ["I [IODIDE]", 4.52],
  ["O=C1NS(=O)(=O)c2ccccc21 [SACCHARIN]", -0.98],
  ["Cc1ccc(-c2cc(C(F)(F)F)nn2-c2ccc(S(N)(=O)=O)cc2)cc1 [CELECOXIB]", -0.16],
  ["NCCc1ccc(S(N)(=O)=O)cc1", -0.24],
  ["NS(=O)(=O)c1nnc(NS(=O)(=O)c2ccccc2)s1 [BENZOLAMIDE]", -0.67],
  ["O=NO [NITROUS ACID]", 3.50],
  ["Nc1ccc(S(N)(=O)=O)cc1I", -0.16],
  ["S1SSSSSSS1 [SULFUR]", 3.60],
  ["N#CO [CYANATE]", 2.84],
  ["NS(N)(=O)=O [SULFAMIDE]", -5.24],
  ["O=S(O)O [SULFUROUS ACID]", 2.63],
  ["Br [BROMIDE]", 2.98],
  ["Nc1ccc(S(N)(=O)=O)cc1Br", -0.27],
  ["NNc1ccccc1S(N)(=O)=O", -0.19],
  ["NCc1ccc(S(N)(=O)=O)cc1 [MAFENIDE]", -0.29],
  ["OB(O)c1ccccc1 [PHENYLBORONIC ACID]", -5.09],
  ["NS(=O)(=O)O [SULFAMATE]", -5.07],
  ["Nc1ccc(S(=O)(=O)NCCc2ccc(S(N)(=O)=O)cc2)cc1", -0.04],
  ["Cl [HYDROCHLORIC ACID]", 2.72],
  ["F [FLUORIDE ION]", 2.96],
  ["Cc1ccc(S(N)(=O)=O)cc1 [P-TOLUENESULFONAMIDE]", -0.29]
]}

* * *

# Target or test system: Alpha carbonic anhydrase (Stylophora pistillata, UniProt B5SU02)
# Sequence (B5SU02 whole entry): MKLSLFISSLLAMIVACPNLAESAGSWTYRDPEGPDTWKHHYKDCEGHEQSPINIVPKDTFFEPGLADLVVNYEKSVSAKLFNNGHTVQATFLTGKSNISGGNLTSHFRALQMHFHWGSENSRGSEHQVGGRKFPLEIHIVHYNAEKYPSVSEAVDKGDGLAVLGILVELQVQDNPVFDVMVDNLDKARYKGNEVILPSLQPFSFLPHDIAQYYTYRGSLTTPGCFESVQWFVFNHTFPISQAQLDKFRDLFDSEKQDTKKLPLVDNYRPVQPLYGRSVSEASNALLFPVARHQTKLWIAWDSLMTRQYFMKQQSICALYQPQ
Recorded Ki values for a group of compounds are listed next.

{"columns": ["Compound", "Ki (µM)"],
 "data": [
  ["NS(=O)(=O)O [SULFAMATE]", 0.00081],
  ["Br [BROMIDE]", 9.7],
  ["Cl [HYDROCHLORIC ACID]", 500],
  ["O=NO", 770],
  ["F [FLUORIDE ION]", 620],
  ["O=S(O)O", 410],
  ["N#CO [CYANATE]", 590],
  ["I [IODIDE]", 9],
  ["O=[N+]([O-])O", 560],
  ["S1SSSSSSS1", 580],
  ["OB(O)c1ccccc1", 0.00068]
]}

* * *

# Target or test system: Carbonic anhydrase 6 (Homo sapiens)
# Sequence (P23280 whole entry): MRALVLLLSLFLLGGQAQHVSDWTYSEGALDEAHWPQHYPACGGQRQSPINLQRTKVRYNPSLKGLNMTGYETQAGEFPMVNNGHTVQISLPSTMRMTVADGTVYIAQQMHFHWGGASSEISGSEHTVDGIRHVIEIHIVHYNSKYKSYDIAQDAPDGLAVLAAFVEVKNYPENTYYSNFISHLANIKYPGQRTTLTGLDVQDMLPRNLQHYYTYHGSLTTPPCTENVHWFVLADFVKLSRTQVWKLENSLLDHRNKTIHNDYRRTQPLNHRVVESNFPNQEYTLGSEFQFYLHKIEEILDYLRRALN
pKi: −log10 of the molar value.
Recorded metric: pKi

{"columns": ["Molecule", "Target or test system", "Readout number"],
 "data": [
  ["Cl [HYDROCHLORIC ACID]", "Carbonic anhydrase 6 (Homo sapiens)", 3.14],
  ["O=S(O)O [SULFUROUS ACID]", "Carbonic anhydrase 6 (Homo sapiens)", 1.85],
  ["Br [BROMIDE]", "Carbonic anhydrase 6 (Homo sapiens)", 3.14],
  ["O=C1NS(=O)(=O)c2ccccc21 [SACCHARIN]", "Carbonic anhydrase 6 (Homo sapiens)", 6.03],
  ["F [FLUORIDE ION]", "Carbonic anhydrase 6 (Homo sapiens)", 3.22],
  ["O=NO [NITROUS ACID]", "Carbonic anhydrase 6 (Homo sapiens)", 3.09],
  ["S1SSSSSSS1 [SULFUR]", "Carbonic anhydrase 6 (Homo sapiens)", 3.15],
  ["I [IODIDE]", "Carbonic anhydrase 6 (Homo sapiens)", 3.09]
]}

Recorded values, source ChEMBL document CHEMBL1641500.
